Recorded values, source ChEMBL document CHEMBL4513216.

assay: Toxicity liver stage against HepG2, at 10uM; assay type: cell-based; set-up: test concentration 10 uM, cell line HepG2-A16-CD81EGFP; settings: human, HepG2-A16-CD81EGFP cells; read-out: INHIBITION
Measurement Kind: cytotoxicity at 10 µM (%)
Number in %, nothing else.

Which cytotoxicity at 10 µM reading was recorded for the compound CC(C)n1[nH]c(=O)c2c1NC(=O)CC2c1ccc(S(C)(=O)=O)cc1 (stereo unspecified) ?
-2.28

Quick one: Cc1cc(NC(=O)CN2CCn3c(nnc3C3CC3)C2)no1
-7.32

Quick one: CCCc1nnsc1C(=O)N1CCCC1(C)C(=O)N1CCOCC1 (stereo unspecified)
12

Quick one: COc1cc(CNC(=O)CNc2cc(Cl)ccc2OC)ccn1
-8.92

Quick one: O=C(NC1(c2nc(C3CC3)no2)CCCCC1)c1cccnc1O
-8.92

Quick one: Cn1c(C(N)=O)cc2c1CN(C(=O)C1CC(=O)N(C(C)(C)C)C1)CC2 (stereo unspecified)
-49.6

---

test: Toxicity liver stage against HepG2, at 10uM; type: cell-based; parameters: test concentration 10 uM, cell line HepG2-A16-CD81EGFP; details: human, HepG2-A16-CD81EGFP cells; read-out: INHIBITION
Kindly state cytotoxicity at 10 µM for each of the entries shown.
Number in %, nothing else.

Which cytotoxicity at 10 µM reading was recorded for the compound Cc1ccccc1C(=O)NC[C@@H]1CCN(C(=O)c2cscn2)C[C@H]1O ?
-52.2

Quick one: O=C(COCc1ccccc1Cl)N1CCCC(n2ccnc2)C1 (configuration not stated)
-25.1

Quick one: O=C(c1ccccc1)N1CC[C@H]2C[C@@H](c3nnc(C4CC4)o3)O[C@@H]2C1
-99.2

Quick one: O=C(O)c1cnc(N2CCCC2)nc1COc1ccccc1
0.924

Quick one: CC(=O)NCCC(=O)NCc1ccc(Br)cc1Cl
0.871

Quick one: CCCS(=O)(=O)NCC(O)c1c(Cl)cccc1Cl (configuration not stated)
7.52

Quick one: Cn1cnc2c1CCN(CCOc1ccc3c(c1)CCC(=O)N3)C2
-4.48

Quick one: COCC1CC2(CCN(C(=O)c3cncc(C)c3)CC2)CO1 (configuration not stated)
-155

Quick one: Fc1cc(Cl)cnc1N1CCCC(c2nccn2CC2CC2)C1 (configuration not stated)
4.8

Quick one: CNC(=O)[C@@H]1C[C@@H](n2cc(-c3ccc(CN4CC=CC4)cc3)nn2)CN1
3.76

Quick one: Cc1ncccc1C(=O)Nc1ccc2ccn(CCN(C)C)c2c1
4.08

Quick one: CS(=O)(=O)NC1CCCN(C(=O)Nc2cccnc2N2CCCC2)C1 (configuration not stated)
-131

Quick one: CN(C)C(=O)C1OC2(CCN(C(=O)c3ccoc3)CC2)c2ccccc21 (configuration not stated)
5.63

Quick one: CNc1nnc(SCc2nnc(C(C)(C)C)o2)s1
-1.05

Quick one: COc1ccc(CN[C@@H]2CO[C@H](CNC(=O)NC(C)C)[C@H]2O)cc1
-4.7

Quick one: Cc1cccc(CN2C(=O)CC[C@@H]3[C@H]2CCN3Cc2ccc(C)s2)n1
5.45

Quick one: O=C(C1CCCC1)N1CCC2(CC1)OCCO2
2.53

Quick one: COCCN(C)C(=O)NCCc1coc(-c2ccc(C)cc2)n1
8.13

Quick one: Cn1nnc2c1CCN(Cc1nccs1)C2COCc1ccccc1 (configuration not stated)
-2.01

Quick one: O=C(NCC1CC1)[C@H]1C[C@H]2OCC[C@H]2N(CCc2ccccc2)C1
3.86

Quick one: CCc1noc(CSc2n[nH]c(-c3ccccn3)n2)n1
5.49

Quick one: c1ccc(Oc2nccc3occc23)c(CN2CCCCC2)c1
-10.1

Quick one: O=C(C1CNCCO1)N1CCC(c2cc(N3CCCC3)ncn2)CC1 (configuration not stated)
6.15

Quick one: CN(C)CCn1cc(NC(=O)NC(C)(C)c2nccs2)cn1
-2.85

Quick one: COc1cccc(OCC(=O)Nc2cc(C)cnc2OC)c1
-11.4

Quick one: Cc1cc2nc(C(C)C)cc(N3CCC(N(C)C)C3)n2n1 (configuration not stated)
-3.88

Quick one: O=C(O)CN1CCC(C(F)(F)F)CC1
17.2

Quick one: CC1(C)CN(C(=O)c2cnc(CN3CCCC3)s2)CC[C@]1(C)O
-15.1

Quick one: Cc1cccc(-c2noc([C@@H]3C[C@@H](O)CN3CC3CCCCC3)n2)c1
6.41

Quick one: CCc1nc(CN2CCN(C(=O)c3cnccn3)CC2)cs1
-8.92

Quick one: CN1CC(NC(=O)CCCc2cc(Cl)sc2Cl)CCC1=O (configuration not stated)
-5.01

Quick one: COCC1CN(C(=O)CS(C)(=O)=O)Cc2ncn(CC3CC3)c21 (configuration not stated)
5.29

Quick one: CC(c1cccc(F)c1)N1CCN(Cc2nccn2C)CC1 (configuration not stated)
-7.81

Quick one: COc1cc(CNc2nncs2)cc(OC)c1OC
18.7

Quick one: CC(=O)N1CCN(CCNc2ncc(Br)cc2C)CC1
2.86

Quick one: c1ccc(CN2CCCn3nnc(CNc4ncccn4)c3C2)nc1
-3.29

Quick one: c1cncc(-c2nccc(CN3CCC(N4CCCCC4)CC3)n2)c1
-26

Quick one: Cc1cnc(C(=O)N2CCCN(c3nc(C)cs3)CC2)cn1
-8.81

Quick one: O=C(COC1CCCC1)NCCCn1nc2ccccn2c1=O
5.78

Quick one: CCCOC(=O)NCCC1CN(c2cnn(C)c(=O)c2)CCO1 (configuration not stated)
5.31

Quick one: Cc1ncc(CC(=O)N2CCC3(CCC(=O)N(C4CC4)C3)CC2)c(=O)[nH]1
-45.1

Quick one: CCOCCC(=O)Nc1cccc(Oc2ccccn2)c1
8.32

Quick one: CN1N=C(C(=O)N(Cc2ccco2)C2CC2)CCC1=O
-2.62

Quick one: O=C1[C@H]2CN(CC3CC3)C[C@H]2CN1Cc1cccc(F)c1
5.56

Quick one: Cc1cnn(CC(C)NCc2ccc(OCc3ccncc3)cc2)c1 (configuration not stated)
3.15

Quick one: CC(C)Oc1ncc(C(=O)N2CCC(NC(=O)C3CC3)CC2)cc1Cl
-20.8

Quick one: CC(NCc1cnc(C2CCC2)s1)c1cccc(-n2ccnc2)c1 (configuration not stated)
4.12

---

Kindly state cytotoxicity at 10 µM for each of the entries shown.
assay: Toxicity liver stage against HepG2, at 10uM; type: cell-based; set-up: test concentration 10 uM, cell line HepG2-A16-CD81EGFP; settings: human, HepG2-A16-CD81EGFP cells; read-out: INHIBITION
Number in %, nothing else.

Which cytotoxicity at 10 µM reading was recorded for the compound CCOCC(=O)N1CCC(c2nc(-c3cccnn3)no2)CC1 ?
-3.3

Quick one: CC(=O)Nn1ccc2c(nnc3c(-c4ccccc4)cnn32)c1=O
3.06

Quick one: Cc1ccc(-n2nc(C)c3c(C)cc(OCC(=O)NC(C)C)nc32)cc1
-3.61

Quick one: COCCN1CCO[C@@H]2CN(Cc3sccc3C)C[C@@H]2C1
-1.34

Quick one: CCN(CC(=O)NC(C)C)S(=O)(=O)N1CCCC(C)C1 (stereo unspecified)
2.77

Quick one: FC(F)(F)Sc1ccccc1NCc1nc(C2CC2)no1
0.858

Quick one: Cc1nc2ccccc2n1CCNCc1cccc(O)c1
-3.89

Quick one: CC(C)c1nn(C)c(N(C)C)c1CNCc1ccccc1CN(C)C
1.53

Quick one: O=S(=O)(c1cncc(F)c1)N1CCSC2(CCCCC2)C1
9.48

Quick one: CN(C)S(=O)(=O)c1ccc(CN2CCCC2CO)o1 (stereo unspecified)
-6.88

Quick one: Cc1noc(C)c1CN1CCC2(CC1)NC(=O)CC2c1ccccc1 (stereo unspecified)
-109

Quick one: Cc1csc(C2CCCN(C(=O)Cn3ccccc3=O)C2)n1 (stereo unspecified)
-5.68

Quick one: COCC(=O)N1CCC2(CC1)C(=O)N(Cc1cccnc1)CCN2C
0.964

Quick one: CN(C)C(=O)[C@@H]1CCO[C@@H]2CCN(Cc3ccc4c(c3)OCO4)C[C@@H]21
-3.76

Quick one: CCCc1cc(C(=O)NCCn2nc3ccccn3c2=O)[nH]n1
-3.56

Quick one: CCc1ccc(C(=O)Nc2ccc3c(c2)N(C)CCN(C)C3)o1
-7.69

Quick one: CC1CN(CC(=O)N2CCOCC2)CCN1Cc1nccn1C (stereo unspecified)
-15.6

Quick one: O=C(Nc1cccnc1)NC(CCCO)c1ccccc1 (stereo unspecified)
-4.4

Quick one: Cc1cnn(CC(=O)NCC2CCN(c3cc(Cl)ccc3C)C2)c1 (stereo unspecified)
-3.92

Quick one: CCN(C1CCN(c2cccc(F)c2C(C)=O)CC1)S(C)(=O)=O
5.17

Quick one: O=C(NCCCO)C1CC(=O)N(c2n[nH]c3cccc(F)c23)C1 (stereo unspecified)
-1.07

Quick one: CCN(CCNC(=O)Nc1nnc(C)s1)C(=O)OC(C)(C)C
-9.41

Quick one: O=C(c1ccncc1)N1CC[C@@H](O)[C@@H](O)[C@H](N2CCC(F)(F)CC2)C1
-10

Quick one: Cc1noc(C)c1CN1C[C@H]2CN(Cc3cccc(F)c3)C[C@H]2C1
-114

Quick one: Cc1nc(C)n(CC2CCCCN2CC(=O)Nc2ccncc2)n1 (stereo unspecified)
-0.344

Quick one: CC1CCCN(Cc2ccc(C(N)=O)cc2)C1 (stereo unspecified)
-10.4

Quick one: CCO[C@@H]1CCN(C(=O)c2cscn2)[C@@H]1Cc1cnn(C)c1
4.84

Quick one: CN(CCOc1cccc(F)c1)Cc1nc2c(cnn2C)c(=O)[nH]1
-0.966

Quick one: Cc1cccc2c1nc1n2[C@@H](CNC(=O)C2CCOCC2)COC1
-1.47

Quick one: CCCOc1cccc(NC(=O)NC2CCc3nc(C)nn3C2)c1 (stereo unspecified)
-1.65

Quick one: COc1ccnc(NC(Cc2ccccc2)C(N)=O)n1 (stereo unspecified)
20.7

Quick one: OCC(CO)N1CCCC(Cc2cnc(Nc3ccccn3)cn2)C1 (stereo unspecified)
-5.97

Quick one: CCn1ccnc1CN(C)C(C(=O)O)c1ccc(C(C)(C)C#N)cc1 (stereo unspecified)
-9.1

Quick one: CC(=O)N1CCC(c2n[nH]cc2-c2ccnc(N)c2)C1 (stereo unspecified)
0.355

Quick one: FC(F)(F)c1n[nH]c2c1CN(CCc1ccccn1)CC2
3.76

Quick one: O=C(CSCC1CC1)N1CCCC(c2nccn2Cc2ccccn2)C1 (stereo unspecified)
1.34

Quick one: O=C([C@H]1CCS(=O)(=O)[C@@H]2CN(CCc3ccccc3)C[C@H]12)N1CCCC1
0.688

Quick one: CC(CO)N(C)C(=O)c1cn(-c2ccc(Br)cc2)cn1 (stereo unspecified)
-2.87

Quick one: Cc1noc(CN(Cc2ccc3c(c2)OCO3)Cc2ccc(C)o2)n1
-0.194

Quick one: Cc1cccc(OCCN2CCN(Cc3cnn(CCO)c3)CC2)c1
-5.16

Quick one: COc1ccc(CC2(C(=O)O)CCN(c3nc(C)ncc3C)CC2)cc1
-21.8

Quick one: Cc1ccc(-n2cc3[nH]c(=O)n(C(C)C)n3c2=O)cc1
-8.9

Quick one: CSc1cccc(CN(C)C(=O)Cn2ncc(N3CCCC3)cc2=O)c1
-2.01

Quick one: CCc1ccccc1C(=O)N1CCN(S(C)(=O)=O)[C@@H](C)C1
-8.72

Quick one: O=C(c1cc(F)ccc1F)C1CCN(C(=O)c2cnccn2)CC1
-27.2

Quick one: CCc1nc(C2CCCN(C(=O)C3=NN(CC)C(=O)CC3)C2)no1 (stereo unspecified)
-9.28
